Cited source: patent US4550118A

- TARGET SYSTEM: histamine H2 receptor in atria (Cavia porcellus)
- Construct: right atrium was isolated; from tissue; host or cells: isolated right atrium of male Hartley guinea pig
- Sequence (P47747 whole entry): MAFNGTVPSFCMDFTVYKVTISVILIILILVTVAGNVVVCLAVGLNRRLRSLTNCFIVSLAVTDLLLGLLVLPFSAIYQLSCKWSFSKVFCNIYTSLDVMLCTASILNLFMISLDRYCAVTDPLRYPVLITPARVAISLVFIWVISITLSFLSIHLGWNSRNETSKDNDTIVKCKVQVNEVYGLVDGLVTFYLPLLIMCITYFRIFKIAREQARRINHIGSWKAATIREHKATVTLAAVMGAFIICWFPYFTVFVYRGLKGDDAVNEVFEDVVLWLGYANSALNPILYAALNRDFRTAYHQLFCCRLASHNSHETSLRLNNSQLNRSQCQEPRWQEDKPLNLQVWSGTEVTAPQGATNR
- TEST NAME: Histamine H2 receptor inhibition effect by isolated guinea pig right atrium preparation (negative chronotropic effect)
- Assay type: cell-based, Male Hartley Guinea Pig
- RUN CONDITIONS: 5×10^-6 mol sample 3 minutes prior to histamine, mean of five, read-out: inhibitory effect of histamine H2 receptor in atria (pA2 value) (converted)
Would you please tag the item true when its Kb is 2 µM or above, and false when it is below?

Solved entries:
>>> cat("CN(C)Cc1nc2cc(CSCCCC(N)=NS(N)(=O)=O)ccc2[nH]1 [Example 122]")
"true"
>>> cat("O=c1[nH]c(NCCCOc2ccc3[nH]c(CN4CCCC4)nc3c2)ncc1Cc1ccc2c(c1)OCO2 [Example 63]")
"true"
>>> cat("CN(C)Cc1nc2cc(CSCCNc3nc(N)nn3C)ccc2[nH]1 [Example 97]")
"false"

Please look at the following molecule next.
Request: // inclusive: Kb at least 2 µM? input: CN(C)Cc1nc2cc(CSCCNC(N)=NC#N)ccc2[nH]1 [Example 34]
Response: false
